- Tested on: M. tuberculosis H37Rv (ATCC 27294)
- Assay Method Text: Microplate Alamar blue assay (MABA)
- Assay type: cell-based, Mycobacterium tuberculosis
- Experimental Conditions: Mycobacterium tuberculosis; M. tuberculosis H37Rv (ATCC 27294), replicating; read-out: MABA MIC
Each item that follows carries a reported MIC.
Write the value in µg/mL as a bare number.

CC(C)=CC1CC(C)C2CCC(C)c3c2c1c(C)c1nc(CCC(N)=O)oc31 (centres unmarked) [Compound 32]	29

Exam item: Give the reported MIC for COC(C)(C)C[C@@H]1C[C@H](C)[C@H]2CC[C@H](C)c3c2c1c(C)c1nccnc31 [Compound 6] (system: M. tuberculosis H37Rv (ATCC 27294)).
Marked response: 84

Exam item: Give the reported MIC for CC(C)=CC1CC(C)C2CCC(C)c3c2c1c(C)c1nc(CC(N)=O)oc31 (centres unmarked) [Compound 33] (system: M. tuberculosis H37Rv (ATCC 27294)).
Marked response: 59

Exam item: Give the reported MIC for CC(C)=CC1CC(C)C2CCC(C)c3c2c1c(C)c1nc(CCC(=O)O)oc31 (centres unmarked) [Compound 31] (system: M. tuberculosis H37Rv (ATCC 27294)).
Marked response: 95

These entries and their values trace back to paper PMC3447335.
